System: U2OS
Test: Incucyte cell viability with U2OS; also: unitless GR value; below 1 slowed growth and below 0 cell loss
Assay type: toxicity, cell-based
Settings: human, 18 h, 10 µM, compound concentration 10 uM, replicate number 1, timepoint 18 hours
Decide using Growth Rate: a value greater than or equal to 0.7 is Met, a smaller one is Not met.

Some entries whose results are on file:
CNC[C@H](O)c1ccc(O)c(O)c1 [EPINEPHRINE]    Met
CC(C)Oc1ccc(Cc2ccc(NC3=NCCN3)cc2)cc1    Met
COc1cc(/C=C/C(=O)NCCn2c(C)cc3ccccc32)cc(OC)c1OC    Not met

Is it the case that COc1cc(OC2CCN(C(C)=O)CC2)ccc1C(=O)N1CCC(N2C(=O)OCc3ccccc32)CC1 has Growth Rate reaching or exceeding 0.7?
Met

And the next one, CC(=O)NCC(=O)N1[C@@H]2CC[C@H]1c1ccc(Nc3ncc(C(F)(F)F)c(NC4CCC4)n3)cc12 [PF-03814735] ?
Not met

Could you do the same for O=C(Nc1cc(C(F)(F)F)ccc1N1CCCCC1)c1ccncc1 , please?
Met

* * *

Overview of recorded Growth Rate for various molecules
Tested on: HEK-293T
Test: Incucyte cell viability with HEK293T; also: unitless GR value; below 1 slowed growth and below 0 cell loss
Assay type: toxicity, cell-based
Conditions: human, 24 h, 10 µM, compound concentration 10 uM, replicate number 1, timepoint 24 hours
Enter the number alone.

OCCN1CCN(CCCN2c3ccccc3Sc3ccc(Cl)cc32)CC1 [PERPHENAZINE]    0.41
CC(C)(C)c1ccc(CSc2cnn(C(C)(C)C)c(=O)c2Cl)cc1 [PYRIDABEN]    0.1

API: the following record is the query input.
Value lookup for Growth Rate; key = CC(=O)O[C@H]1C(=O)[C@@]2(C)[C@H]([C@H](OC(=O)c3ccccc3)[C@]3(O)C[C@H](OC(=O)[C@H](O)[C@@H](NC(=O)c4ccccc4)c4ccccc4)C(C)=C1C3(C)C)[C@]1(OC(C)=O)CO[C@@H]1C[C@@H]2O [PACLITAXEL]
-0.03

* * *

Each entry below lists one item and its recorded Growth Rate value.
System: Fibroblast
Assay: Incucyte cell viability with human fibroblast; also: unitless GR value; below 1 slowed growth and below 0 cell loss
Type: toxicity, cell-based
Details: 18 h, 10 µM, compound concentration 10 uM, replicate number 1, timepoint 18 hours
Where a SMILES comes first, the peptide text is derived from it. [ ]: non-standard residue; d: D form.
Please give only the number in your answer, with no unit.

Consider the following illustrative entries.
Brc1c(N=C2NCCN2)ccc2nccnc12.O=C(O)C(O)C(O)C(=O)O    0.86
CCN1/C(=C/C(C)=O)Sc2ccc(OC(C)=O)cc21    0.17
CC(C)C[C@@H]1NC(=O)[C@@H](C(C)C)NC(=O)[C@@H]2CCCN2C(=O)[C@@H](CC(=O)O)NC(=O)[C@@H](Cc2c[nH]c3ccccc23)NC1=O [BQ-123] (cyclo(L[dW][dD]P[dV]))    0.98
COCCCN1CCC(NC(=O)c2cc(Cl)c(N)c3c2OCC3)CC1 [PRUCALOPRIDE]    0.86
CCC(=O)N1CC[C@H](Nc2ncnc3c2CN(c2cnc(OC)c(C(F)(F)F)c2)CC3)C1    0.75
CN[C@@H]1Cc2cccc3[nH]c(=O)n(c23)C1.O=C(O)/C=C\C(=O)O    0.81
CC(C)Cc1ccc([C@@H](C)C(=O)NS(C)(=O)=O)cc1    0.6

Here is the next item to consider.
Consider the molecule shown here: Cl.Cl.OCCOCCN1CCN(C(c2ccccc2)c2ccc(Cl)cc2)CC1 (stereo not drawn) [HYDROXYZINE HYDROCHLORIDE] What is its recorded Growth Rate?
0.88

* * *

Tested on: U2OS
Test: Incucyte cell viability with U2OS; also: unitless GR value; below 1 slowed growth and below 0 cell loss
Format: toxicity, cell-based
Conditions: human, 24 h, 10 µM, compound concentration 10 uM, replicate number 1, timepoint 24 hours
Where a SMILES comes first, the peptide text is derived from it. [ ]: non-standard residue; d: D form.
Quantity Kind: Growth Rate
Respond with the number and no other words.

CCCN1CCC[C@@H]2Cc3n[nH]cc3C[C@H]21.Cl [QUINPIROLE HYDROCHLORIDE]    0.88
COc1ccc(CN(CCN(C)C)c2ccccn2)cc1 [PYRILAMINE]    1
C[C@H](CCC(=O)O)[C@H]1CC[C@H]2[C@@H]3CC[C@@H]4C[C@H](O)CC[C@]4(C)[C@H]3CC[C@]12C [LITHOCHOLIC ACID]    0.96

Please look up its Growth Rate: Nc1nc(Nc2ccccc2)nc2c1ncn2[C@@H]1O[C@H](CO)[C@@H](O)[C@H]1O
0.93

Lookup CC(C)C[C@@H]1NC(=O)[C@@H](C(C)C)NC(=O)[C@@H]2CCCN2C(=O)[C@@H](CC(=O)O)NC(=O)[C@@H](Cc2c[nH]c3ccccc23)NC1=O [BQ-123] (cyclo(L[dW][dD]P[dV]))
0.93

Another molecule: CN[C@@H]1Cc2cccc3[nH]c(=O)n(c23)C1.O=C(O)/C=C\C(=O)O
0.89

# repeat for Cc1cc(C)cc(C(=O)NOCCCCCC(=O)NO)c1
0.37

Please give the result for CN(C(=O)c1ccccc1)c1cc(N(C)c2ccc3c(c2)CCc2ccc(C(=O)NCCN4CCOCC4)cc2C3=O)ccc1F [FM-743] too.
0.74

Try the molecule Nc1nccc(-c2ccn3c(N)nccc23)n1
0.98

Proceed to CCCCC/C=C\C/C=C\C/C=C\C/C=C\CCCC(=O)NCC(=O)O [ARACHIDONOYL GLYCINE]
0.76

Now try CC(=O)c1cc(-c2ccccc2OCC2CC2)c2ncccn12 .
0.98

And then OCCCNc1cc(-c2ccnc(Nc3cccc(Cl)c3)n2)ccn1 , what is it?
0.23

* * *

System: U2OS
Assay: Incucyte cell viability with U2OS; also: unitless GR value; below 1 slowed growth and below 0 cell loss
Format: toxicity, cell-based
Conditions: human, 6 h, 10 µM, compound concentration 10 uM, replicate number 2, timepoint 6 hours
Let's look at some compounds and their measured Growth Rate.

Name the recorded Growth Rate for Oc1c(CN2CCN(c3ccccn3)CC2)cc(Cl)c2cccnc12 .
-0.14

Could you do the same for CCc1cc2c(cc1-c1cccc(S(=O)(=O)F)c1)C(C)(C)c1[nH]c3cc(C#N)ccc3c1C2=O , please?
0.92

// next record CN1CCN(c2cc(-c3ccccc3)nc(N)n2)CC1
0.59

Repeat with COC(=O)Nc1nc2ccc(C(=O)c3cccs3)cc2[nH]1
0.24

Consider next the compound Cl.O=C1CC[C@@]2(O)[C@H]3Cc4ccc(O)c5c4[C@@]2(CCN3CC2CC2)[C@H]1O5 [NALTREXONE HYDROCHLORIDE] in the same way.
0.81

Another compound: Cc1cc(CN)cc(C)c1-c1ncn(C)c1-c1ccnc2cc(F)ccc12
0.18

Quick one: c1cc(OCCCN2CCCCC2)ccc1CN1CCCCC1
0.76

Next record, please: C[C@@H](O[C@H]1OCCN(Cc2n[nH]c(=O)[nH]2)[C@H]1c1ccc(F)cc1)c1cc(C(F)(F)F)cc(C(F)(F)F)c1 [APREPITANT]
0.58

How about this compound: O=C(CCCc1ccccc1)Nc1nc2ccccc2c(=O)s1
0.67

Follow-up entry: Cn1cc(-c2ccc3occ(-c4cccc(-c5ccncc5)c4)c3n2)cn1
-0.14

Also COCCN1CCC(c2cc(CN(C)C(=O)c3cccc(Oc4ccccc4)c3)ccn2)CC1 ?
0.6

And then CC(C)C[C@@H](NC(=O)[C@H](Cc1ccccc1)NC(=O)CNC(=O)[C@@H](C)NC(=O)[C@@H](N)Cc1ccc(O)cc1)C(=O)O , what is it?
0.82

Item: CC(C)Oc1ccc(-c2nc(-c3cccc4c3CC[C@@H]4NCCO)no2)cc1C#N
-0.16

What do we get for Cc1cc(Nc2ncc(Cl)c(Nc3ccccc3S(=O)(=O)C(C)C)n2)c(OC(C)C)cc1C1CCNCC1 ?
-0.91

Similarly, N[C@@H]1c2cccnc2[C@H](OC(=O)N2CCC(n3c(=O)[nH]c4ncccc43)CC2)CC[C@H]1c1cccc(F)c1F ?
0.88

Can you check CC(=O)Nc1cccc2c1c(Sc1ccc(Cl)cc1)c(C)n2CC(=O)O next?
0.93

Also Nc1nccc(-c2ccn3c(N)nccc23)n1 ?
0.89

Again, but for O=C(O)c1cccc(/C=C2/C[C@@H]3[C@@H](/C=C/[C@H](O)C4CCCCC4)[C@H](O)C[C@@H]3O2)c1
0.71

* * *

Tested on: HEK-293T
Test: Incucyte cell viability with HEK293T; also: unitless GR value; below 1 slowed growth and below 0 cell loss
Type: toxicity, cell-based
Settings: human, 24 h, 10 µM, compound concentration 10 uM, replicate number 1, timepoint 24 hours
// label = 1.0 if Growth Rate is not less than 0.7, otherwise 0.0

CC(C)C[C@@H](NC(=O)[C@H](Cc1ccccc1)NC(=O)CNC(=O)[C@@H](C)NC(=O)[C@@H](N)Cc1ccc(O)cc1)C(=O)O [DADLE]    1.0
O=c1c2cccn2c2ccccc2n1CCCN1CCC(c2ccc(Cl)cc2)CC1    1.0
CN[C@@H](C)C(=O)N[C@H]1CCCC[C@H]2CC[C@@H](C(=O)N[C@@H](c3ccccc3)c3cn(CCCCc4ccc(CCCCn5cc([C@@H](NC(=O)[C@@H]6CC[C@@H]7CCCC[C@H](NC(=O)[C@H](C)NC)C(=O)N76)c6ccccc6)nn5)cc4)nn3)N2C1=O    0.0

Say whether CCOc1ccc(Cc2nc3cc(C(=O)N(CC)CC)ccc3n2CC2CCCCC2)cc1 shows Growth Rate of 0.7 or more.
1.0

Proceed to CCCN(CCC)[C@@H]1CCc2ccc3[nH]c(C#N)cc3c2C1.Cl
1.0

Check COc1ncc2cc(C(=O)Nc3cc(C(=O)NCc4cccc(Cl)c4)ccc3Cl)c(=O)[nH]c2n1 too.
0.0
